- protocol description: M. tuberculosis H37Rv growth inhibitors, H37Rv strain (AID 1626);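 note: bacteria incubated seven days before Alamar blue readout; 0% = bacteria only wells and 100% = bacteria with antibiotic wells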
- measurement context: active compounds read high, concentration not given here
In all, about 220,000 compounds went through this assay and about 2,000 (0.91%) were called active. Not shown: some 2% with an inconclusive outcome. The list is a sample of the results. Entries with a potency or affinity are not part of this list.
readout label: inhibition (%)
Give bare numbers, in %.

What measured inhibition goes with Cn1c(=O)[nH]c(=O)c2c1nc(SCC(=O)Nc1ccccc1)n2Cc1ccccc1 ?
4.62

And the next one, c1ccc(-c2nc3cc4ccccc4cc3[nH]2)nc1 ?
-3.91

And the next one, CCc1ccc2[nH]c(=O)c(CN(Cc3ccccc3OC)C(=O)Nc3ccccc3OC)cc2c1 ?
7.78

And the next one, O=c1[nH]c(-c2ccccn2)cc2ccccc12 ?
-4.45

And the next one, Cc1cc(C)cc(OCc2nnc(SCC(=O)N3CCN(c4ccccc4)CC3)o2)c1 ?
-4.78

And the next one, CCOC(=O)c1ccccc1NC(=O)COC(=O)C1=COCCO1 ?
71.3

And the next one, CC(C)c1ccc(NC(=O)COC(=O)C2=COCCO2)cc1 ?
78.6

And the next one, Cc1ccc(NC(=O)COC(=O)C2=COCCO2)cc1 ?
60.1

And the next one, CCOC(=O)c1cc(C(C)(C)C)nc(SC)c1C#N ?
0.56

And the next one, CC(C)(C)c1ccc(NC(=O)COC(=O)C2=COCCO2)cc1 ?
74

Lab note: next compound to report on.
What measured inhibition goes with O=C(CNC(=S)N(Cc1ccccc1F)C1CCCCC1)NC1CC1 ?
-3.6

---

- protocol description: M. tuberculosis H37Rv growth inhibitors, H37Rv strain (AID 1626)
- measurement context: active compounds read high, concentration not given here
Hit rate of the full screen: of about 220,000 compounds, about 2,000 (0.91%) were called active. Not shown: some 2% with an inconclusive outcome. A selection follows. Results with a measured potency or affinity are listed apart.
readout label: inhibition (%)
One number for each entry, in %.

What measured inhibition goes with Cc1cc(C)cc(NC(=O)c2ccc(CNc3c(N4CCOCC4)c(=O)c3=O)cc2)c1 ?
12.3

And the next one, CCn1c(SCC(=O)O)nnc1-c1cccnc1 ?
-5.44

And the next one, CCn1c(N2CCN(C(=O)/C=C/c3ccccc3)CC2)nc2ccccc21 ?
0.45

And the next one, CCOc1ccc2nc(SCC(=O)N(C)C)[nH]c2c1 ?
-11.1

And the next one, Nc1nc(Cl)cc(Sc2ccc3ccccc3c2)n1 ?
8.65

I have 7 compounds here; please give me inhibition for each one.
1. CCCCn1c(=O)c(C(=O)Nc2ccccc2)c(O)c2ccccc21
2. Cc1cc(C)nc(-n2nc(C)c(Oc3ccccc3O)c2C)n1
3. Cc1nn(-c2ccccn2)c(C)c1Oc1ccccc1O
4. Cc1nnc(SCC(=O)Nc2ncc(S(=O)(=O)c3ccc([N+](=O)[O-])cc3)s2)s1
5. N#Cc1c(/N=C/c2cccnc2)sc2c1CCCC2
6. O=C(NCc1ccc(Cl)cc1)c1ccc(CNc2c(N3CCCC3)c(=O)c2=O)cc1
7. c1ccc(N2CCCCC2)c(Nc2nc3ccccc3n3cnnc23)c1

1: -1.05; 2: -0.16; 3: 7.63; 4: -0.12; 5: 2.15; 6: 4.26; 7: 14.3

---

- protocol description: M. tuberculosis H37Rv growth inhibitors, H37Rv strain (AID 1626)
- measurement context: active compounds read high, concentration not given here
Out of some 220,000 compounds screened, about 2,000 (0.91%) were called active. Inconclusive results (about 2%) are left out. A selection follows. Results with a measured potency or affinity are listed apart.
Can you tell me inhibition for the items I'm about to list?
One number for each entry, in %.

What measured inhibition goes with COc1ccccc1-c1coc2cc(OCC(=O)OCc3ccccc3)ccc2c1=O ?
8.31

I have 7 compounds here; please give me inhibition for each one.
1. O=C(c1cc(Cl)ccc1Cl)N1CCOCC1
2. N#Cc1cccnc1N1CCC(C(N)=O)CC1
3. O=C(C1CCC(CNc2c(N3CCCCC3)c(=O)c2=O)CC1)N1CCCC1 (stereo unspecified)
4. CC1CCN(c2c(NCC3CCC(C(=O)N4CCCC(C)C4)CC3)c(=O)c2=O)CC1 (stereo unspecified)
5. O=C(CCn1c(=O)c2sccc2n(CC(=O)OCc2ccccc2)c1=O)NCc1ccccc1
6. COc1ccc2c(C#N)c3ccccn3c2c1
7. COc1ccc(OC)c(NC(=O)c2cc3ccccc3o2)c1

[-11, -8.98, -3.71, -5.27, -4.57, 8.95, 7.13]

I have 3 compounds here; please give me inhibition for each one.
1. N#Cc1c2ccc(OCC(N)=O)cc2n2ccccc12
2. c1ccc(Cc2nnc(N3CCOCC3)c3ccccc23)cc1
3. CCn1cc(-c2cc(C(F)(F)F)n3nc(C(=O)O)cc3n2)c(C)n1

5.54
-4.25
-10.8

---

- protocol description: M. tuberculosis H37Rv growth inhibitors, H37Rv strain (AID 1626);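 note: bacteria incubated seven days before Alamar blue readout; 0% = bacteria only wells and 100% = bacteria with antibiotic wells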
- measurement context: active compounds read high, concentration not given here
The whole screen tested about 220,000 compounds, of which about 2,000 (0.91%) were called active. Roughly 2% stayed inconclusive and do not appear here. Only a sample is shown. Entries with a potency or affinity are not part of this list.
readout label: inhibition (%)
Give bare numbers, in %.

What measured inhibition goes with Cc1ccc(NC(=O)CSCc2ccc(F)cc2)cc1 ?
76.7

And the next one, Cc1cccc(-c2noc(CCC(=O)Nc3ccccc3)n2)c1 ?
1.97

And the next one, Cc1cccc(-c2noc(CCCC(=O)Nc3ccc(C(N)=O)cc3)n2)c1 ?
0.64

I have 3 compounds here; please give me inhibition for each one.
1. N#CC1=C(S)N(c2ccccc2)C(c2ccc(-c3cccc(Cl)c3)o2)NC1=O (stereo unspecified)
2. COc1ccc(NC(=O)c2ccco2)c(OC)c1
3. N#CC1=C(S)N(c2ccccc2)C(c2ccc(-c3cc(Cl)ccc3Cl)o2)NC1=O (stereo unspecified)

1: 4.44; 2: -9.54; 3: 9.36

---

- protocol description: M. tuberculosis H37Rv growth inhibitors, H37Rv strain (AID 1626);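 note: bacteria incubated seven days before Alamar blue readout; 0% = bacteria only wells and 100% = bacteria with antibiotic wells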
- measurement context: active compounds read high, concentration not given here
Out of some 220,000 compounds screened, about 2,000 (0.91%) were called active. Inconclusive results (about 2%) are left out. Not all results are given here. Entries with a potency or affinity are not part of this list.
Can you tell me inhibition for the items I'm about to list?
Answers are plain numbers, in %.

I have 3 compounds here; please give me inhibition for each one.
1. Cc1ccc2c(c1)c1c(n2C)C(=O)CCC1
2. COc1ccc(CCNC(=O)C2=COCCO2)cc1
3. COc1ccc(-c2csc(NC(=O)COC(=O)C3=COCCO3)n2)cc1

[-12.1, 0.72, 4.53]

---

- protocol description: M. tuberculosis H37Rv growth inhibitors, H37Rv strain (AID 1626);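 note: bacteria incubated seven days before Alamar blue readout; 0% = bacteria only wells and 100% = bacteria with antibiotic wells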
- measurement context: active compounds read high, concentration not given here
In all, about 220,000 compounds went through this assay and about 2,000 (0.91%) were called active. Another 2% or so got no clear call; they are omitted. A selection follows. Potency and affinity values are given separately.
Can you tell me inhibition for the items I'm about to list?
One number for each entry, in %.

Worked set:
What measured inhibition goes with CN(C)C(=O)c1nnsc1Sc1ccc(Cl)cc1 ?
-1.74

And the next one, CC(C)C(NS(=O)(=O)c1cccc2nsnc12)C(=O)NCCC1=CCCCC1 (stereo not given) ?
-3.27

And the next one, O=C(c1ccco1)N1CCN(CCCCN2C(=O)c3ccccc3C2=O)CC1 ?
-5.13

And the next one, COc1ccc(C(=O)N(C)C2CCN(C)CC2)cc1S(=O)(=O)Nc1cc(Cl)ccc1Cl ?
-15.1

And the next one, CN(Cc1ncc[nH]1)C(=O)c1cc(COc2c(F)cccc2F)on1 ?
0.91

I have 6 compounds here; please give me inhibition for each one.
1. O=C(CNc1cccc(C(F)(F)F)c1)N/N=C/c1cn(-c2ccccc2)nc1-c1ccccc1
2. COc1ccccc1NCC(=O)n1nc(C)cc1C
3. CCc1ccc(C(C(=O)NC(C)(C)CC)N(Cc2ccco2)C(=O)Cn2nnc3ccccc32)cc1 (stereo not given)
4. CCN(CC)S(=O)(=O)c1cc(NC(=O)COC(=O)CCc2nc3ccccc3s2)ccc1C
5. O=C1Nc2cc(Cl)cnc2N2CCCC12 (stereo not given)
6. OCC1(Cc2ccccc2)CCN(Cc2ccc(C(F)(F)F)cc2)CC1

[8.35, -3.99, 2.42, 0.37, 2.46, 10.2]

I have 2 compounds here; please give me inhibition for each one.
1. O=C(c1ccc(S(=O)(=O)c2ccc(Cl)cc2)cc1)N1CCOCC1
2. CCN1C(=O)N[C@@H](c2ccccc2)[C@@H](C(=O)OC)[C@H]1C

1. -6.61
2. -12.7

I have 5 compounds here; please give me inhibition for each one.
1. CCOc1ccc(CCNC(=O)CSc2cc(=O)n(C)c3cc(Cl)ccc23)cc1OCC
2. CCc1ccc(CCC(=O)Nc2nnc(CC)s2)o1
3. O=C(Nc1ccccc1)c1nnsc1S(=O)(=O)c1ccc(Cl)cc1
4. COc1ccc(-c2ccc(OC)c([C@H]3[C@@H]4C=CCC[C@@]4(C)C(=O)N3Cc3ccccc3)c2)cc1OC
5. CN=C(Nc1ccccc1OC)SC1CC(=O)N(c2ccc(C(=O)OC)cc2)C1=O (stereo not given)

-8.35
7.07
2.07
10.5
7.4

I have 3 compounds here; please give me inhibition for each one.
1. Cc1ccc2c(CN3CCN(Cc4ccc5c(c4)OCO5)CC3)cc(=O)oc2c1C
2. O=C(Nc1ccc(Cl)cc1)OCc1cn(-c2ccc(Cl)cc2)nn1
3. O=C(NCc1ccc(Cl)cc1)c1cc(-c2cccs2)on1

[-3.12, -0.6, -1.76]

I have 5 compounds here; please give me inhibition for each one.
1. CCCC(c1nnnn1C(C)(C)C)N1CCN(Cc2ccccc2OC)CC1 (stereo not given)
2. Cc1ccc(C)c2[nH]c(=O)c(CN(CC3CCCO3)C(=S)NCc3ccco3)cc12 (stereo not given)
3. Cc1c(O)ccc(-c2n[nH]c(C(=O)O)c2-c2nc3ccccc3s2)c1O
4. CC1Cc2ccccc2N1C(=O)CSc1nc2c(c(=O)n(C)c(=O)n2C)n1Cc1ccc(F)cc1 (stereo not given)
5. CC(=O)Oc1ccc2oc(C)c(C(=O)N3CCOCC3)c2c1

[-3.31, 1.36, -16.8, -3.29, -12.9]

I have 6 compounds here; please give me inhibition for each one.
1. O=c1cn[nH]c2ccccc12
2. Cc1nc2cc(Cl)c([N+](=O)[O-])cc2s1
3. O=C(COc1ccc(Cl)cc1)Nc1ccccc1N1CCOCC1
4. COC(C/C=C/[C@H](O)[C@H](C)OCc1ccccc1)OC
5. CC1=C(C(=O)NC2CCC(C)CC2)C2(CCC(C)CC2)OC1=O (stereo not given)
6. CNC(=O)CSCCn1c(SCC(=O)NC)nc2ccccc2c1=O

1: -1.28; 2: 7.87; 3: -1.58; 4: -0.67; 5: 3.77; 6: -1.73

I have 2 compounds here; please give me inhibition for each one.
1. CCCNC(=O)c1nnsc1Sc1ccc(Cl)cc1
2. Cc1ccc(-c2cc(C(=O)NCc3cccnc3)no2)cc1

18.6
3.89

I have 8 compounds here; please give me inhibition for each one.
1. CCCc1[nH]nc2c1C(c1ccc(OCCN3CCOCC3)c(OC)c1)C(C#N)=C(N)O2 (stereo not given)
2. CC(=O)Nc1ccc(NC(=O)c2ccc(Cl)nc2)cc1
3. N/C(=N\S(=O)(=O)c1ccc(Cl)cc1)N1CCOCC1
4. COc1ccc(OC)c(S(=O)(=O)Nc2ccc3oc4c(c3c2)C(=O)CCC4)c1
5. CNC(=O)c1nnsc1S(=O)c1ccc(Cl)cc1 (stereo not given)
6. Cn1c(-c2ccc3c(c2)OCO3)cnc1NCc1ccccc1
7. Cc1ccc(NC(=O)c2cc(NC(=O)C3CC=CCC3C(=O)O)ccc2N2CCOCC2)cc1Cl (stereo not given)
8. O=C(CNC(=O)c1ccco1)OCc1ccc(C(=O)c2ccccc2)cc1

-0.42
3.97
-5.14
-4.7
78.9
-5.95
-6.7
3.51

Cited source for all entries: PubChem BioAssay AID1626
